Provenance of the data: BigSolDB 2.1

assay_setup: in isopentanol, 283.15 K
reported_metric: solubility (mole fraction)

The reported value for C=CC(=O)NC(C)(C)CC(C)=O in terms of solubility (mole fraction) is 0.24

====

assay_setup: in methyl acetate, 298.15 K
reported_metric: solubility (mole fraction)
Answers are plain numbers.

response.value for C=CC(=O)NC(C)(C)CC(C)=O (field: solubility (mole fraction)) = 0.455

====

assay_setup: in n-hexanol, 303.15 K
reported_metric: solubility (mole fraction)
One number for each entry.

Quick note, solubility (mole fraction) for C=CC(=O)NC(C)(C)CC(C)=O landed at 0.491

====

assay_setup: in n-butanol, 272.15 K
reported_metric: solubility (mole fraction)

For record C=CC(=O)NC(C)(C)CC(C)=O the listed solubility (mole fraction) is 0.169
